Property: composite z-score; scope: individual molecules
system: Neuregulin-1 EGF-like domain; test: binders of neuregulin-1 EGF-like domain, primary screen, biochemical, small-molecule microarray, 635 nm fluorescence (AID 1081); conditions: small-molecule microarray binding, higher = more signal;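 also: binding of the protein to compounds printed on small-molecule microarray slides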

molecule	composite z-score
C=CC[C@]1(C(=O)OC)N=C(c2ccc(OCCCO)cc2)O[C@H]1c1ccccc1CN=[N+]=[N-]	0.863
C=CCN1C(=O)[C@]2(O[C@H](CCn3cc(CCO)nn3)[C@@H]([Si](C)(C)c3ccc(OC)cc3)[C@@H]2C)c2cc(NC(=O)c3ccc(OC)cc3)ccc21	0.974
O=C1OCC=C[C@H]2OC34C=CCN(Cc5ccccc5)C(=O)[C@H]3N(CCCCCO)C(=O)[C@@H]4[C@@H]12 (some centres not stated)	0.631
C=C(CCCC)/C(=C/C[C@H](OC(=O)c1ccncc1)c1cccc(OCCO)c1)c1cc(C(=O)OC)ccc1OC	0.952
Cc1ccc(S[C@]2(C(=O)NC(C)C)CC(=O)N(Cc3cc(C(F)(F)F)cc(C(F)(F)F)c3)[C@@H]2c2ccc(CO)cc2I)cc1	0.74
COCCOC(=O)N1C(=O)[C@@]2(c3cc(C#CCNC(N)=O)ccc31)[C@H](c1ccc(OCCO)cc1)N1[C@H](c3ccccc3)[C@H](c3ccccc3)OC(=O)[C@H]1[C@@H]2C(=O)Nc1nc2ccccc2s1	-0.757
O=C1O[C@H](c2ccccc2)[C@H](c2ccccc2)N2[C@H]1[C@@H](C(=O)Nc1nc3ccccc3s1)[C@]1(C(=O)Nc3ccc(C#CC4=CCCCC4)cc31)[C@H]2c1ccccc1OCCO	1.06
